Each recorded value in this set is attributed to PubChem BioAssay (Tox21).

Biological target: Nuclear receptor subfamily 1 group I member 2 (Homo sapiens) (UniProt O75469)
Assay: Human pregnane X receptor (PXR) activation by small molecules, qHTS assay (AID 1346985); further: nearly all actives have a fitted effect of over 40% in size
Details: DPX-2 HepG2 CYP3A4-luciferase, 24 h; series mostly up to 38.3 µM
Records with an inconclusive call do not appear. Active and inactive are the calls of the source. The call rests on the fitted dose curve; in most records, active means well fitted activation curve with a large enough effect in the repeat runs; inconclusive means weak or mixed curves; inactive means flat fitted curve, though single readings scatter.
Classes used: active, inactive

{"columns": ["Compound", "Assay Target", "Classification"],
 "data": [
  ["CC(Cc1ccc(O)cc1)NCC(O)c1cc(O)cc(O)c1 (centres undefined)", "Nuclear receptor subfamily 1 group I member 2 (Homo sapiens) (UniProt O75469)", "inactive"],
  ["C[N+]1(C)[C@@H]2CC[C@H]1CC(OC(=O)C(CO)c1ccccc1)C2 (some centres undefined)", "Nuclear receptor subfamily 1 group I member 2 (Homo sapiens) (UniProt O75469)", "inactive"],
  ["CN1CCc2cc(Cl)c(O)cc2[C@H]2c3ccccc3CC[C@@H]21", "Nuclear receptor subfamily 1 group I member 2 (Homo sapiens) (UniProt O75469)", "active"],
  ["COc1c2c(cc3c1OCO3)CCN(C)C2", "Nuclear receptor subfamily 1 group I member 2 (Homo sapiens) (UniProt O75469)", "inactive"],
  ["CC(C)C(Br)C(=O)NC(N)=O (centres undefined)", "Nuclear receptor subfamily 1 group I member 2 (Homo sapiens) (UniProt O75469)", "inactive"],
  ["[O]=[Cr](=[O])([OH])[O][Cr](=[O])(=[O])[OH]", "Nuclear receptor subfamily 1 group I member 2 (Homo sapiens) (UniProt O75469)", "inactive"],
  ["COc1ccc(Cc2nccc3cc(OC)c(OC)cc23)cc1OC", "Nuclear receptor subfamily 1 group I member 2 (Homo sapiens) (UniProt O75469)", "inactive"],
  ["CNC(C)(C)Cc1ccccc1", "Nuclear receptor subfamily 1 group I member 2 (Homo sapiens) (UniProt O75469)", "inactive"],
  ["CN1C(=O)[C@@H](NC(=O)c2cc3ccccc3[nH]2)N=C(c2ccccc2)c2ccccc21", "Nuclear receptor subfamily 1 group I member 2 (Homo sapiens) (UniProt O75469)", "inactive"]
]}

====

Target: Luciferin 4-monooxygenase (Photinus pyralis)
Assay: qHTS assay to identify small molecule inhibitors of firefly luciferase (AID 1224835); further: nearly all actives have a fitted effect of over 25% in size
Conditions: purified P. pyralis luciferase, luminescence inhibition; series mostly up to 115 µM
Records with an inconclusive call do not appear. The source made the active and inactive calls. The call rests on the fitted dose curve; in most records, active means well fitted inhibition curve with a large enough effect in the repeat runs; inconclusive means weak or mixed curves; inactive means flat fitted curve, though single readings scatter.
Classes used: T (active), F (inactive)

{"columns": ["Compound", "Classification"],
 "data": [
  ["CO/N=C(\\C(=O)OC)c1ccccc1CO/N=C(\\C)c1cccc(C(F)(F)F)c1", "F"],
  ["O=S1OCC2C(CO1)C1(Cl)C(Cl)=C(Cl)C2(Cl)C1(Cl)Cl (stereo not drawn)", "F"],
  ["O=[N+]([O-])c1ccccc1-c1ccccc1", "F"],
  ["C#CC1(O)CCCCC1", "F"],
  ["C=CC(=C)C", "F"],
  ["CC(C)Br", "F"],
  ["BrCCCBr", "F"],
  ["CCCCCCC[CH2][Sn]([Cl])([Cl])[CH2]CCCCCCC", "F"],
  ["Clc1ccc(C(c2ccc(Cl)cc2)C(Cl)Cl)cc1", "F"],
  ["CCN(CC)C(=O)N[C@@H]1C=C2c3cccc4[nH]cc(c34)C[C@@H]2N(C)C1", "F"],
  ["CNC(=O)/C=C(\\C)OP(=O)(OC)OC", "F"],
  ["O=S1(=O)OCC2C(CO1)C1(Cl)C(Cl)=C(Cl)C2(Cl)C1(Cl)Cl (stereo not drawn)", "T"],
  ["CCC(C)Nc1c([N+](=O)[O-])cc(C(C)(C)C)cc1[N+](=O)[O-] (stereo not drawn)", "T"],
  ["O=[N+]([O-])C(Br)Br", "T"],
  ["CC(C)[C@@H](Nc1ccc(C(F)(F)F)cc1Cl)C(=O)OC(C#N)c1cccc(Oc2ccccc2)c1 (stereo partly drawn)", "F"],
  ["O.O.O.O=C([O-])[C@H]([O-])[C@@H]([O-])C(=O)[O-].O=C([O-])[C@H]([O-])[C@@H]([O-])C(=O)[O-].[K+].[K+].[Sb+3].[Sb+3]", "F"],
  ["Cc1cc(C2CC2)nc(Nc2ccccc2)n1", "T"],
  ["CC(Cc1ccc(OCC(=O)O)cc1)NCC(O)c1csc(C(F)(F)F)n1 (stereo not drawn)", "F"],
  ["CCCCC(CC)COC(=O)c1ccccc1C(=O)OCC(CC)CCCC (stereo not drawn)", "F"],
  ["CC1(C)[C@H](/C=C2\\CCSC2=O)[C@@H]1C(=O)OCc1coc(Cc2ccccc2)c1", "F"],
  ["Cc1c([N+](=O)[O-])cc2c(c1[N+](=O)[O-])C(C)(C)CC2(C)C", "F"],
  ["CCN1CCC2(CC1)COc1cc3c(cc12)N(C(=O)c1ccc(-c2ccc(-c4nnc(C)o4)cc2C)cc1)CC3", "F"],
  ["CCO/N=C(\\CC)C1=C(O)CC(c2c(C)cc(C)cc2C)CC1=O (stereo not drawn)", "F"]
]}

====

Target: Estrogen receptor (Homo sapiens) (UniProt P03372)
Sequence (P03372 whole entry, looked up): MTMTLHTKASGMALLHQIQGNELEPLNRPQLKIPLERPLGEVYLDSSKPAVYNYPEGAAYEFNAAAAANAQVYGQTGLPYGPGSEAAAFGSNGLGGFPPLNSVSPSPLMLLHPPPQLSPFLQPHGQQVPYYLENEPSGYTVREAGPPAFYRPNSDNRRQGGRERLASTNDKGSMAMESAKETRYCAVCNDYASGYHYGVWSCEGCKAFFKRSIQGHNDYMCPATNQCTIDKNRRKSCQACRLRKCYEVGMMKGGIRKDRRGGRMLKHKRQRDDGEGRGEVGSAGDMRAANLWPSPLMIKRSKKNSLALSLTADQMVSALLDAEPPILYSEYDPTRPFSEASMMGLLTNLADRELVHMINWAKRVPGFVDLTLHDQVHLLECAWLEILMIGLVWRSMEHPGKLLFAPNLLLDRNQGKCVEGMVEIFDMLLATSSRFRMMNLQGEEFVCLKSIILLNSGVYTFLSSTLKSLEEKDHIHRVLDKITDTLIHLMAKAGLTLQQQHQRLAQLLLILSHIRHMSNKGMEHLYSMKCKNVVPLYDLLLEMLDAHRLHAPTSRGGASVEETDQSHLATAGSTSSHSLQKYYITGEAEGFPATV
Test: qHTS assay to identify small molecule agonists of the estrogen receptor alpha (ER-alpha) signaling pathway using the BG1 cell line (AID 743079); further: nearly all actives have a fitted effect of over 20% in size
Details: BG1Luc4E2 cells, ERE-luciferase agonist, 22 h
Results filed as inconclusive are left out. Active and inactive are the calls of the source. Calls come from the whole dose curve; as a rule, active = well fitted activation curve with a large enough effect in the repeat runs; inconclusive = weak or mixed curves, or effect the other way; inactive = no such curve, though single readings can be large or run the other way.
Classes used: 1 (yes) = active, 0 (no) = inactive

{"columns": ["Molecule", "Classification"],
 "data": [
  ["COP(=S)(OC)Oc1nc(Cl)c(Cl)cc1Cl", "0 (no)"],
  ["N#CCCl", "1 (yes)"],
  ["CN/C(=N\\[N+](=O)[O-])NCc1cnc(Cl)s1", "0 (no)"],
  ["CCOP(=S)(NC(C)C)Oc1ccccc1C(=O)OC(C)C (configuration not stated)", "0 (no)"],
  ["COc1c2c(cc3c1OCO3)CCN(C)C2", "0 (no)"],
  ["[O]=[Cr](=[O])([OH])[O][Cr](=[O])(=[O])[OH]", "0 (no)"],
  ["CC(Cl)CCl (configuration not stated)", "0 (no)"]
]}

====

Assay: qHTS assay to identify small molecule agonists of the sonic hedgehog signaling (Shh) pathway (AID 1259368); further: nearly all actives have a fitted effect of over 15% in size
Details: NIH/3T3 Gli1-Luc reporter, luciferase, 24 h; series mostly up to 92.4 µM
The source made the active and inactive calls. The call rests on the fitted dose curve.
Classes used: t for active, f for inactive

{"columns": ["Molecule", "Classification"],
 "data": [
  ["CC(C)N(C(=O)SC/C(Cl)=C/Cl)C(C)C", "f"],
  ["O=C(CCCCl)c1ccc(F)cc1", "f"],
  ["O=S(=O)(O)F", "f"],
  ["COP(=S)(NC(C)C)Oc1ccc(C)cc1[N+](=O)[O-] (stereo not drawn)", "f"],
  ["ClC1(Cl)C2(Cl)C3(Cl)C4(Cl)C(Cl)(Cl)C5(Cl)C3(Cl)C1(Cl)C5(Cl)C24Cl (stereo not drawn)", "f"],
  ["COc1ccc2c(c1OC)C(=O)O[C@@H]2[C@H]1c2cc3c(cc2CCN1C)OCO3", "f"],
  ["Fc1ccc(C(OCCN2CCN(CCCc3ccccc3)CC2)c2ccc(F)cc2)cc1", "f"],
  ["Brc1cccc(-c2ccccc2)c1", "f"],
  ["O=c1[nH]c(Cl)c(Cl)cc1Cl", "f"],
  ["N#Cc1c[nH]cc1-c1cccc2c1OC(F)(F)O2", "f"],
  ["CC[N+]1(CC)CCC(OC(=O)C(O)(c2ccccc2)c2ccccc2)C1 (stereo not drawn)", "f"],
  ["C=CC(=C)C", "f"],
  ["CCN(CC)C(=O)N[C@@H]1C=C2c3cccc4[nH]cc(c34)C[C@@H]2N(C)C1", "f"],
  ["C[C@]12Cc3cn[nH]c3C[C@@H]1CC[C@@H]1[C@@H]2CC[C@@]2(C)[C@H]1CC[C@]2(C)O", "f"],
  ["C[C@]12CC[C@H]3[C@@H](CCC4=CC(=O)CC[C@@H]43)[C@@H]1CC[C@@H]2OC(=O)CCc1ccco1", "f"],
  ["COCCC#N", "f"],
  ["COC(=O)c1ccccc1S(=O)(=O)NC(=O)Nc1nc(C)nc(OC)n1", "f"],
  ["CC(Cl)CCl (stereo not drawn)", "f"],
  ["CCCCC(CC)COC(=O)c1ccccc1C(=O)OCC(CC)CCCC (stereo not drawn)", "f"],
  ["COP(=S)(OC)Oc1ccc([N+](=O)[O-])c(C)c1", "f"],
  ["CN1C2CCC(C)(C)C1CC(OC(=O)C(O)(c1cccs1)c1cccs1)C2 (stereo not drawn)", "f"],
  ["C#CCO", "f"],
  ["Oc1ccc([C@H]2CNCc3c2ccc(O)c3O)cc1O", "f"],
  ["COC(=O)N(OC)c1ccccc1COc1ccn(-c2ccc(Cl)cc2)n1", "f"],
  ["[C-]1=CC=CC1.[Cl][Zr+2][Cl].c1cc[cH-]c1", "f"],
  ["O=S1OCC2C(CO1)C1(Cl)C(Cl)=C(Cl)C2(Cl)C1(Cl)Cl (stereo not drawn)", "f"],
  ["CCc1cccc(C)c1N(C(=O)CCl)[C@@H](C)COC", "f"],
  ["CNC(=O)O/N=C(\\C)C(C)S(C)(=O)=O (stereo not drawn)", "f"],
  ["CC1=C2C[C@H]3[C@@H](CC=C4C[C@@H](O)CC[C@@]43C)[C@@H]2CC[C@]12O[C@@H]1C[C@H](C)CN[C@H]1[C@H]2C", "f"],
  ["Clc1ccc(C(c2ccc(Cl)cc2)C(Cl)Cl)cc1", "f"],
  ["CC1CN1 (stereo not drawn)", "f"],
  ["ClC1=C(Cl)[C@]2(Cl)[C@@H]3[C@H]4C[C@H]([C@@H]5O[C@H]45)[C@@H]3[C@@]1(Cl)C2(Cl)Cl", "f"],
  ["O=c1[nH]c2cc(Cl)ccc2n1C1CCNCC1", "f"],
  ["CCCC[N+]1(C)CCCC1 (tested in a mixture with another compound)", "f"],
  ["CNC(=O)Oc1cc(C)cc(C(C)C)c1", "f"],
  ["CCC(C)c1cccc(C(C)CC)c1O (stereo not drawn)", "f"],
  ["O.O.O.O=C([O-])[C@H]([O-])[C@@H]([O-])C(=O)[O-].O=C([O-])[C@H]([O-])[C@@H]([O-])C(=O)[O-].[K+].[K+].[Sb+3].[Sb+3]", "f"],
  ["Oc1cc(Cl)c(Cl)c(Cl)c1Cl", "f"],
  ["O=[N+]([O-])c1ccccc1-c1ccccc1", "f"],
  ["CCOP(=O)(Sc1ccccc1)Sc1ccccc1", "f"],
  ["Clc1ccc(C(Cl)(Cl)Cl)cc1Cl", "f"],
  ["FC(F)C(F)(F)OCC(Cn1cncn1)c1ccc(Cl)cc1Cl (stereo not drawn)", "f"],
  ["CCN(CC)CCc1c[nH]c2ccccc12", "f"],
  ["c1csc(-c2ccc(-c3cccs3)s2)c1", "t"],
  ["CCCCn1cc[n+](C)c1.[Cl][Fe-]([Cl])([Cl])[Cl]", "f"],
  ["CCOP(=O)(OCC)Oc1cc(C)nc(C(C)C)n1", "f"],
  ["CC(=O)[O-].CC(=O)[O-].CC(=O)[O-].[Cr+3]", "f"],
  ["O=C1C[C@@H]2OCC=C3CN4CC[C@]56c7ccccc7N1[C@H]5[C@H]2[C@H]3C[C@H]46", "f"]
]}
